Taken from patent US20230356105A1.

# experimental.details: Use of additives to improve separation of Nd/Dy mixture by precipitation with L5 (Example 18)
# Format: physicochemical
# conditions.used: additive 100 mM; 11 mM L5
Where Supernatant concentration [mM] Nd equals or exceeds 0.3 mM, the correct label is 1 (yes); where it does not, the label is 0 (no).

Some solved entries appear below for comparison.
{"compound": "NCC(=O)O [glycine]", "label.class": "1 (yes)"}
{"compound": "Cl [chloride]", "label.class": "0 (no)"}
{"compound": "O=S(=O)(O)O [sulfate]", "label.class": "0 (no)"}
{"compound": "O=CO [formate]", "label.class": "1 (yes)"}
{"compound": "O=[N+]([O-])O [nitrate]", "label.class": "0 (no)"}
{"compound": "O=C(O)c1ccccc1 [benzoic acid]", "label.class": "1 (yes)"}

Query: In plain terms: is recorded Supernatant concentration [mM] Nd at least 0.3 mM for N#C[S-].[Na+] [thiocyanate] ?
Response: 0 (no)

---

Form field: Supernatant concentration [mM] Dy (one value per entry).
# experimental.details: Use of additives to improve separation of Nd/Dy mixture by precipitation with L5 (Example 18)
# Assay type: physicochemical
# conditions.used: additive 15 mM; 11 mM L5
The response must be a number in mM with no trailing unit.

{"compound": "C[C@H](O)C(=O)O [l-lactate]", "unit.spec": "mM", "Supernatant concentration [mM] Dy": 3.21}
{"compound": "F [fluoride]", "unit.spec": "mM", "Supernatant concentration [mM] Dy": 3.26}
{"compound": "O=C(O)CO [glycolate]", "unit.spec": "mM", "Supernatant concentration [mM] Dy": 3.13}

Let us examine a further case.
Query: Find the measured Supernatant concentration [mM] Dy of CC(C)(O)C(=O)O [α-HIBA, alpha-hydroxyisobutyric acid] and report it.
Response: 3.37

---

Form field: Supernatant concentration [mM] Nd (one value per entry).
# experimental.details: Use of additives to improve separation of Nd/Dy mixture by precipitation with L5 (Example 18)
# Type: physicochemical
# conditions.used: additive 250 mM; 11 mM L5
Please give the number followed by its unit.

Reference set (5 entries):
{"compound": "OB(O)c1ccccc1 [phenylboronic acid]", "Supernatant concentration [mM] Nd": "0.87 mM"}
{"compound": "O=CO [formate]", "Supernatant concentration [mM] Nd": "0.11 mM"}
{"compound": "CC(=O)O [acetate]", "Supernatant concentration [mM] Nd": "1.17 mM"}
{"compound": "O=S(=O)(O)O [sulfate]", "Supernatant concentration [mM] Nd": "0.08 mM"}
{"compound": "O=C(O)c1ccccc1 [benzoic acid]", "Supernatant concentration [mM] Nd": "5 mM"}

Query: Find the measured Supernatant concentration [mM] Nd of c1ccncc1 [pyridine] and report it.
Response: 0.09 mM

---

Form field: Precipitate concentration [mM] Nd (one value per entry).
# experimental.details: Use of additives to improve separation of Nd/Dy mixture by precipitation with L5 (Example 18)
# Assay type: physicochemical
# conditions.used: additive 10 mM; 11 mM L5
The response must be a number in mM with no trailing unit.

{"compound": "O=C(O)CO [glycolate]", "Precipitate concentration [mM] Nd / mM": 4.92}
{"compound": "CC(C)(O)C(=O)O [α-HIBA, alpha-hydroxyisobutyric acid]", "Precipitate concentration [mM] Nd / mM": 4.03}
{"compound": "O=C(O)CC(O)(CC(=O)O)C(=O)O [citrate]", "Precipitate concentration [mM] Nd / mM": 4.49}
{"compound": "C[C@H](O)C(=O)O [l-lactate]", "Precipitate concentration [mM] Nd / mM": 4.49}

Query: Find the measured Precipitate concentration [mM] Nd of F [fluoride] and report it.
Response: 6.15

---

# experimental.details: Use of additives to improve separation of Nd/Dy mixture by precipitation with L5 (Example 18)
# Assay type: physicochemical
# conditions.used: additive 1000 mM; 11 mM L5
Form field: Supernatant concentration [mM] Nd (one value per entry).
The response must be a number in mM with no trailing unit.

Reference set (3 entries):
{"molecule": "O=S(=O)(O)O [sulfate]", "value.observed": 0.34}
{"molecule": "Cl [chloride]", "value.observed": 0.11}
{"molecule": "O=[N+]([O-])O [nitrate]", "value.observed": 0.15}

Let us examine a further case.
Query: Find the measured Supernatant concentration [mM] Nd of N#C[S-].[Na+] [thiocyanate] and report it.
Response: 0.41

---

# experimental.details: Use of additives to improve separation of Nd/Dy mixture by precipitation with L5 (Example 18)
# Type: physicochemical
# conditions.used: additive 1000 mM; 11 mM L5
quantity.kind: Supernatant concentration [mM] Dy (mM)
The response must be a number in mM with no trailing unit.

{"compound": "O=S(=O)(O)O [sulfate]", "unit.spec": "mM", "Supernatant concentration [mM] Dy": 1.20}
{"compound": "O=[N+]([O-])O [nitrate]", "unit.spec": "mM", "Supernatant concentration [mM] Dy": 1.72}
{"compound": "Cl [chloride]", "unit.spec": "mM", "Supernatant concentration [mM] Dy": 0.24}

Let us examine a further case.
Query: Find the measured Supernatant concentration [mM] Dy of N#C[S-].[Na+] [thiocyanate] and report it.
Response: 1.70

---

Form field: Supernatant concentration [mM] Nd (one value per entry).
# experimental.details: Use of additives to improve separation of Nd/Dy mixture by precipitation with L5 (Example 18)
# Assay type: physicochemical
# conditions.used: additive 50 mM; 11 mM L5
The response must be a number in mM with no trailing unit.

Query: Find the measured Supernatant concentration [mM] Nd of O=CO [formate] and report it.
Response: 0.07

Query: Find the measured Supernatant concentration [mM] Nd of CC(=O)O [acetate] and report it.
Response: 0.33

Query: Find the measured Supernatant concentration [mM] Nd of NCC(=O)O [glycine] and report it.
Response: 0.09

Query: Find the measured Supernatant concentration [mM] Nd of O=C(O)c1ccccc1 [benzoic acid] and report it.
Response: 0.10

---

# experimental.details: Use of additives to improve separation of Nd/Dy mixture by precipitation with L5 (Example 18)
# Type: physicochemical
# conditions.used: additive 20 mM; 11 mM L5
Form field: Precipitate concentration [mM] Dy (one value per entry).
The response must be a number in mM with no trailing unit.

{"mol.smiles": "O=C(O)[C@@H](O)c1ccccc1", "quantity.kind": "Precipitate concentration [mM] Dy", "value.observed": 1.13}
{"mol.smiles": "OB(O)c1ccccc1", "quantity.kind": "Precipitate concentration [mM] Dy", "value.observed": 4.33}
{"mol.smiles": "O=C(O)c1cccc(C(=O)O)n1", "quantity.kind": "Precipitate concentration [mM] Dy", "value.observed": 0.36}

Let us examine a further case.
Query: Find the measured Precipitate concentration [mM] Dy of O=C(O)c1ccccc1O and report it.
Response: 4.36

---

Form field: Precipitate concentration [mM] Dy (one value per entry).
# experimental.details: Use of additives to improve separation of Nd/Dy mixture by precipitation with L5 (Example 18)
# Assay type: physicochemical
# conditions.used: additive 1000 mM; 11 mM L5
# Description: Stock solutions were pipetted into plastic 1×1 cm cuvettes to prepare reaction mixtures with concentrations as follows: • 1. […] 5 mM NdCl3 • 3. 5 mM DyCl3 • 4. […] These aqueous reaction mixtures, each prepared to a total volume of 2.0 mL with the addition of water as necessary, were mixed by the use of a PTFE-coated stir bar on a magnetic stirrer. […] The absolute concentration of Nd and Dy in each supernatant and precipitate was determined by ICP-OES.
The response must be a number in mM with no trailing unit.

Reference set (3 entries):
{"compound": "Cl [chloride]", "quantity.kind": "Precipitate concentration [mM] Dy", "value.observed": 4.88}
{"compound": "O=[N+]([O-])O [nitrate]", "quantity.kind": "Precipitate concentration [mM] Dy", "value.observed": 3.23}
{"compound": "O=S(=O)(O)O [sulfate]", "quantity.kind": "Precipitate concentration [mM] Dy", "value.observed": 3.35}

Query: Find the measured Precipitate concentration [mM] Dy of N#C[S-].[Na+] [thiocyanate] and report it.
Response: 3.26

---

# experimental.details: Use of additives to improve separation of Nd/Dy mixture by precipitation with L5 (Example 18)
# Format: physicochemical
# conditions.used: additive 15 mM; 11 mM L5
Form field: Supernatant concentration [mM] Nd (one value per entry).
Please give the number followed by its unit.

Reference set (3 entries):
{"compound": "C[C@H](O)C(=O)O [l-lactate]", "Supernatant concentration [mM] Nd": "0.49 mM"}
{"compound": "CC(C)(O)C(=O)O [α-HIBA, alpha-hydroxyisobutyric acid]", "Supernatant concentration [mM] Nd": "0.33 mM"}
{"compound": "F [fluoride]", "Supernatant concentration [mM] Nd": "0.49 mM"}

Let us examine a further case.
Query: Find the measured Supernatant concentration [mM] Nd of O=C(O)CO [glycolate] and report it.
Response: 0.35 mM
